- protocol.summary: CCTE_Deisenroth_AIME_384WELL_CTox_Active: Cytotoxicity Assessment (CTOX) in CCTE's 384-well Estrogen Receptor Transactivation Assay with AIME metabolic competence (metabolism positive), Deisenroth Lab (AID 2284037);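 further: chemicals first conditioned 2 h by alginate-bound induced rat liver S9 before cells; activity means signal loss indicating cell death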
Inconclusive results are not listed. Active and inactive are the calls of the source. How the source made its calls: active means hit-call score of the fitted dose curve at least 0.9, where 1 is the maximum; inconclusive means response in the unintended direction; inactive means score below 0.9.
One label from this list, please: active, inactive

Below are worked cases with known answers.
>>> df
                                   molecule  label_class
0                       O=C(O)/C=C/c1ccccc1     inactive
1               O=C(Nc1ccccc1)c1cc(Cl)ccc1O       active
2                   C[Si](C)(C)N[Si](C)(C)C     inactive
3      N#Cc1ccc(C(c2ccc(C#N)cc2)n2cncn2)cc1     inactive
4             CCCCC/C=C\C/C=C\CCCCCCCC(=O)O     inactive
5  O=c1c(O)c(-c2ccc(O)cc2O)oc2cc(O)cc(O)c12       active

We now examine a further molecule.
Ask: What outcome does the record of this test show for CCCCCC[C@@H](O)C/C=C\CCCCCCCC(=O)OCC(O)CO (some centres not stated) ?
Reply: inactive
